Test system: MV4-11
Assay name: Antiproliferative activity against human MV4-11 cells assessed as growth inhibition incubated for 5 days by CellTiter-Glo reagent based assay
Assay type: functional
Details: MV4-11, 120 h, time 5 day

| Compound | GI50 |
| --- | --- |
| CCc1cc(OC)c2nccc(N3COc4c(cc(Cn5ccnc5)cc4-c4cn(C)nc4C(F)(F)F)C3=O)c2c1 | 260 nM |
| COc1cc(CN2CC(=O)Nc3c(cc(Cn4ccn(C)c4=N)cc3-c3ccc(F)cc3C)C2=O)cc(OC)c1 | 210 nM |
| CCn1cc(-c2cc(Cn3ccnc3C)cc3c2OCCN([C@H]2CCOc4ccc(OC)cc42)C3=O)c(C(F)(F)F)n1 | 16 nM |
| CCn1cc(-c2cc(Cn3ccnc3)cc3c2OCCN([C@H](c2cc(OC)ccn2)C2CC2)C3=O)c(C(F)(F)F)n1 | 57 nM |
| COc1cc(CN2Cc3c(cc(Cn4ccn(C)c4=N)cc3-c3ccc(F)cc3C)C2=O)cc(OC)c1 | 5400 nM |
| CCc1cnc2c(c1)[C@@H](N1CCOc3c(cc(Cn4ccnc4)cc3-c3cn(C)nc3C(F)(F)F)C1=O)CCC2 | 7.7 nM |
| COc1ccc2c(c1)C(N1CCOc3c(cc(Cn4ccnc4C)cc3-c3cn(C)nc3C(F)(F)F)C1=O)CCC2 (stereo not given) | 25 nM |
| COc1cc(Cn2cnc3c(-c4ccc(F)cc4C)cc(Cn4ccn(C)c4=N)cc3c2=O)cc(OC)c1 | 230 nM |
| CCn1cc(-c2cc(Cn3ccnc3)cc3c2CCN([C@H](c2cc(OC)ccn2)C2CC2)C3=O)c(C(F)(F)F)n1 | 19 nM |
| COc1cc(CN2CCc3c(cc(Cn4ccn(C)c4=N)cc3-c3ccc(F)cc3C)C2=O)cc(OC)c1 | 38 nM |
| COc1cc(CN2CCOc3c(cc(Cn4ccn(C)c4=N)cc3-c3ccc(F)cc3C)C2=O)cc(OC)c1 | 37 nM |
| COc1cnc2c(c1)[C@@H](N1CCOc3c(cc(Cn4ccnc4)cc3-c3cn(C)nc3C(F)(F)F)C1=O)CCC2 | 3.2 nM |
| COc1cc(CN2CNc3c(cc(Cn4ccn(C)c4=N)cc3-c3ccc(F)cc3C)C2=O)cc(OC)c1 | 140 nM |
| CCn1cc(-c2cc(Cn3ccnc3)cc3c2NCN([C@H](c2cc(OC)ccn2)C2CC2)C3=O)c(C(F)(F)F)n1 | 32 nM |
| COc1cnc2cccc(N3CCOc4c(cc(Cn5ccnc5)cc4-c4cn(C)nc4C(F)(F)F)C3=O)c2c1 | 300 nM |

Origin of values: ChEMBL document CHEMBL5375993
